- Tested on: SK-MEL-1 (Melanoma)
- method description: combination Emax (second highest fraction inhibited in the dose matrix, 72 h); higher = more inhibition; extreme values may be limits of the assay
readout label: combination Emax
Simply state the number, no unit and no words.

Take a look at these entries with their results.
C[C@@H]1COCCN1c1cc(C2([S@](C)(=N)=O)CC2)nc(-c2ccnc3[nH]ccc23)n1 [AZD6738] + Nc1ccn([C@@H]2O[C@H](CO)[C@@H](O)C2(F)F)c(=O)n1 [Gemcitabine] (first compound max 10 µM, 7x7, partner max 0.3 µM)
0.528
NC1(C(=O)N[C@@H](CCO)c2ccc(Cl)cc2)CCN(c2ncnc3[nH]ccc23)CC1 [Capivasertib] + CC(=O)c1c(C)c2cnc(Nc3ccc(N4CCNCC4)cn3)nc2n(C2CCCC2)c1=O [Palbociclib] (first compound max 10 µM, 7x7, partner max 10 µM)
0.141

[Q] // query combination Emax value for entry Cc1c2c(nn1C)CSCc1cc(n(C)n1)CSc1cc(c3ccccc3c1)OCCCc1c(C(=O)O)n(C)c3c-2c(Cl)ccc13 [AZD5991] + Nc1ccn([C@@H]2O[C@H](CO)[C@@H](O)C2(F)F)c(=O)n1 [Gemcitabine] (first compound max 1 µM, 7x7, partner max 0.3 µM)
[A] 0.441

[Q] Consider the molecule shown here: Cc1c2c(nn1C)CSCc1cc(n(C)n1)CSc1cc(c3ccccc3c1)OCCCc1c(C(=O)O)n(C)c3c-2c(Cl)ccc13 [AZD5991] + CCN(CCO)CCCOc1ccc2c(Nc3cc(CC(=O)Nc4cccc(F)c4)[nH]n3)ncnc2c1 [AZD2811] (first compound max 1 µM, 7x7, partner max 1 µM) What is its recorded combination Emax?
[A] 0.312

[Q] Suppose we examine the molecule CC1(C)CCC(CN2CCN(c3ccc(C(=O)NS(=O)(=O)c4ccc(NCC5CCOCC5)c([N+](=O)[O-])c4)c(Oc4cnc5[nH]ccc5c4)c3)CC2)=C(c2ccc(Cl)cc2)C1 [Venetoclax] + Cc1cc2ncnn2cc1Nc1ncc2c(n1)n(C1CCOCC1)c(=O)n2C [AZD7648] (first compound max 1 µM, 7x7, partner max 10 µM) ; what combination Emax value has been reported?
[A] 0.308

[Q] Entry under review: COc1cccc(OCCCN)c1-c1cc(Nc2cnc(C#N)cn2)n[nH]1 [Prexasertib] + Cc1cc2ncnn2cc1Nc1ncc2c(n1)n(C1CCOCC1)c(=O)n2C [AZD7648] (first compound max 1 µM, 7x7, partner max 10 µM) . Reported combination Emax?
[A] 0.653

[Q] Name the reported combination Emax value associated with the molecule O=C(c1cc(Cc2n[nH]c(=O)c3ccccc23)ccc1F)N1CCN(C(=O)C2CC2)CC1 [Olaparib] + CC1(C)CCC(CN2CCN(c3ccc(C(=O)NS(=O)(=O)c4ccc(NCC5CCOCC5)c([N+](=O)[O-])c4)c(Oc4cnc5[nH]ccc5c4)c3)CC2)=C(c2ccc(Cl)cc2)C1 [Venetoclax] (first compound max 10 µM, 7x7, partner max 1 µM)
[A] 0.151

[Q] Which combination Emax value is on record for Cc1c2c(nn1C)CSCc1cc(n(C)n1)CSc1cc(c3ccccc3c1)OCCCc1c(C(=O)O)n(C)c3c-2c(Cl)ccc13 [AZD5991] + Cc1cc2ncnn2cc1Nc1ncc2c(n1)n(C1CCOCC1)c(=O)n2C [AZD7648] (first compound max 1 µM, 7x7, partner max 10 µM) ?
[A] 0.303

[Q] Endpoint output: combination Emax of CCN(CCO)CCCOc1ccc2c(Nc3cc(CC(=O)Nc4cccc(F)c4)[nH]n3)ncnc2c1 [AZD2811] + C=CCn1c(=O)c2cnc(Nc3ccc(N4CCN(C)CC4)cc3)nc2n1-c1cccc(C(C)(C)O)n1 [AZD1775] (first compound max 1 µM, partner max 1 µM) . Value?
[A] 0.353

[Q] Give the measured combination Emax of CN(CCO)CC[C@H](CSc1ccccc1)Nc1ccc(S(=O)(=O)NC(=O)c2ccc(N3CCC([C@@H](O)c4ccccc4-c4ccc(Cl)cc4)CC3)cc2)cc1S(=O)(=O)C(F)(F)F [AZD4320] + CS(=O)(=O)CCNCc1ccc(-c2ccc3ncnc(Nc4ccc(OCc5cccc(F)c5)c(Cl)c4)c3c2)o1 [Lapatinib] (first compound max 1 µM, 7x7, partner max 10 µM) .
[A] 0.808

[Q] Value lookup for combination Emax; key = Cc1cc2ncnn2cc1Nc1ncc2c(n1)n(C1CCOCC1)c(=O)n2C [AZD7648] + C[C@@H]1COCCN1C2=NC(=NC(=C2)C3(CC3)[S@](=N)(=O)C)C4=C5C=CNC5=NC=C4 [AZD6738] (first compound max 10 µM, 7x7, partner max 10 µM)
[A] 0.293

[Q] Consider the molecule shown here: C[C@@H](Nc1cc(F)cc(F)c1)c1cc(C(=O)N(C)C)cc2c(=O)cc(N3CCOCC3)oc12 [AZD8186] + CC(=O)c1c(C)c2cnc(Nc3ccc(N4CCNCC4)cn3)nc2n(C2CCCC2)c1=O [Palbociclib] (first compound max 10 µM, 7x7, partner max 10 µM) What is its recorded combination Emax?
[A] 0.265

[Q] Item under review: NC1(C(=O)N[C@@H](CCO)c2ccc(Cl)cc2)CCN(c2ncnc3[nH]ccc23)CC1 [Capivasertib] + C[C@@H]1COCCN1C2=NC(=NC(=C2)C3(CC3)[S@](=N)(=O)C)C4=C5C=CNC5=NC=C4 [AZD6738] (first compound max 10 µM, 7x7, partner max 10 µM) . Reported combination Emax?
[A] 0.296
